- MEASURED_TARGET: T1, hVEGF-A (8-109) (human, UniProt P15692 214-315)
- T1 sequence (looked up): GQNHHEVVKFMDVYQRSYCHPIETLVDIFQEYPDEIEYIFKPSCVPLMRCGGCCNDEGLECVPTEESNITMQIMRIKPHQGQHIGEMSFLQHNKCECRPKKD
- EXPERIMENT_DESCRIPTION: spot phage ELISA
- Experimental: After four rounds of binding selection, individual phage clones were picked and inoculated into 450 μl 2YT media containing 50 µg/ml Carbenecillin and M13-KO7 helper phage in 96-well blocks, which were grown at 37° C. overnight. […] The plates were washed and bound phage was detected with anti-M13-HRP followed by TMB substrate. In these assays, phage binding to BSA alone was tested in parallel to assess background binding. […] Positive clones were subjected to DNA sequence analysis.
ELISA: recorded values

BINDER	ELISA
GCDIMQPLWGCKQDSDCLAGCVCHWYQSCG (designed binder) [VEGF_CKP9.L1.68]	2
GCNVLLPLWGCKQDSDCLAGCVCHWYQSCG (designed binder) [VEGF_CKP9.L1.64]	2.3
GCQVLQPSWGCKQDSDCLAGCVCHWYQSCG (designed binder) [VEGF_CKP9.L1.79]	1.2
GCDLMQPLWGCKQDSDCLAGCVCHWYQSCG (designed binder) [VEGF_CKP9.L1.76]	2.5
GCHLFEPLWGCKQDSDCLAGCVCHWYQSCG (designed binder) [VEGF_CKP9.L1.2]	1.6
GCQVMRPFWGCKQDSDCLAGCVCHWYQSCG (designed binder) [VEGF_CKP9.L1.7]	1.5
GCNPMLPLWGCKQDSDCLAGCVCHWYQSCG (designed binder) [VEGF_CKP9.L1.78]	3
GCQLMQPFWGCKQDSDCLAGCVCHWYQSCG (designed binder, also called E9) [VEGF_CKP9]	0.4
GCQVMQPAWGCKQDSDCLAGCVCHWYQSCG (designed binder) [VEGF_CKP9.L1.8]	1.2
GCNPMLPFWGCKQDSDCLAGCVCHWYQSCG (designed binder) [VEGF_CKP9.L1.57]	3.7
GCHRLQPLWGCKQDSDCLAGCVCHWYQSCG (designed binder) [VEGF_CKP9.L1.19]	1.4
